System: PXR homodimer (NR concentration 270 nM)
Assay: PBM binding z-score (relative to random genomic background probes); higher = stronger binding; sequences stand for … in GC…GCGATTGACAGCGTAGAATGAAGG
As shown below, each of these sequences has a reported PBM binding z-score value.
Give your answer as a number; write no unit.

CCAATTAGTTGACCATAAGGGCAACCGAAGCTCG
0.892
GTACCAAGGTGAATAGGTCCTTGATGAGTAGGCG
-0.138
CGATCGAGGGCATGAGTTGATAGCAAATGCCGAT
-0.306
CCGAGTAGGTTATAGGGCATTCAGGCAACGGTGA
-0.129
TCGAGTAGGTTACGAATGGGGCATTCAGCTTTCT
-0.855
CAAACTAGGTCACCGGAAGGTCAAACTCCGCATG
2.46
AGAATGAGGTTACGATCAGGGAAACAGAATACAT
0.235
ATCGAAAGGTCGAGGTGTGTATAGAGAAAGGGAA
0.958
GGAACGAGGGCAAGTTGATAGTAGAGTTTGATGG
1.17
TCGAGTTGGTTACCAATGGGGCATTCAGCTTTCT
-0.63

PBM binding z-score for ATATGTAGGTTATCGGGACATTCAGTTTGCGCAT ?
1.45

Likewise for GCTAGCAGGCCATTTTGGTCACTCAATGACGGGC ?
-0.836

Reference source: the supplement of paper PMC6555819
